The measurements presented in this section are drawn from ChEMBL document CHEMBL1141727.

Tested on: MC-38
Assay: Growth inhibition of mouse C38 cells assessed as zone units at 50 ug/disk by disk diffusion agar colony formation assay
Format: functional
measured-parameter: Activity (Zone units)
One number for each entry, in Zone units.

Past entries and their recorded results:
C=C1CCC[C@H]2[C@](C)(CC[C@]3(C)CC[C@H]([C@@H](C)C(=O)O)OO3)[C@@H](C)CC[C@]12C [SIGMOSCEPTRELLIN A]    180
C=C1CCCC(C)(C)C1CCC1(C)CC[C@H]([C@@H](C)C(=O)O)OO1 (single isomer, unassigned) [NAPAPUIN B]    300

Count: 3. Required value per item: Activity.
1. C=C1CCCC(C)(C)C1CC[C@]1(C)CC[C@H]([C@@H](C)C(=O)OC)OO1 (stereo not given in full) [NUAPAPUIN B]
2. CC1=C(CC/C(C)=C/CC[C@@]2(C)CC[C@H]([C@H](C)C(=O)O)OO2)C(C)(C)CCC1
3. COC(=O)[C@H](C)[C@H]1CC[C@@](C)(CCC2=C(C)CCCC2(C)C)OO1 [NUAPAPUIN A METHYL ESTER]

Result ::
1. 300
2. 60
3. 700
